melting point overview

Some solved entries appear below for comparison.
[[record]]
compound = "Cc1ccnn(-c2cccc(Cl)c2)c1=O"
outcome_measure = "melting point"
assay_result = "244 to 245 °C"

[[record]]
compound = "CC(=O)c1ccc(C(=O)N(C)C)o1"
outcome_measure = "melting point"
assay_result = "101 to 104 °C"

[[record]]
compound = "O=C(Oc1ccc(Cl)c(OCC2CC2(Cl)Cl)c1)N1CCCC1 (configuration not stated)"
outcome_measure = "melting point"
assay_result = "72 to 74 °C"

[[record]]
compound = "CC(c1ccc(O)cc1)(c1ccc(O)cc1)c1ccc2ccccc2c1"
outcome_measure = "melting point"
assay_result = "185 to 186 °C"

[[record]]
compound = "COC(=O)Nc1ccc(Br)c(F)c1"
outcome_measure = "melting point"
assay_result = "121 to 122 °C"

[[record]]
compound = "CCOCc1cc2ccccc2oc1=Nc1ccc(OC)cc1"
outcome_measure = "melting point"
assay_result = "78 to 79 °C"

[[record]]
compound = "CC(=O)NC1CCCn2c1c(C)c1ccccc12 (configuration not stated)"
outcome_measure = "melting point"
assay_result = "158 to 160 °C"

[[record]]
compound = "O=C(O)c1c(Cl)c(Cl)c(Cl)c(Cl)c1C(=O)Nc1ccc(S(=O)(=O)C(F)(F)F)cc1"
outcome_measure = "melting point"
assay_result = "92 to 97 °C"

[[record]]
compound = "CC(=O)/C=C(\\C)c1ccc(C2CCCC2)cc1"
outcome_measure = "melting point"
assay_result = "33 to 33.5 °C"

[[record]]
compound = "CC1(CN2CCN(Cc3ccc(C(F)(F)F)cc3)C(=O)C2)Cn2cc([N+](=O)[O-])nc2O1 (configuration not stated)"
outcome_measure = "melting point"
assay_result = "88 to 93 °C"


// fetch melting point given entry O=C(Nc1nc2ccccc2[nH]1)c1ccc(Cl)c(Cl)c1
251 to 252 °C

// fetch melting point given entry COc1ccc(-c2csc(Nc3cccc4ccccc34)n2)cc1OC
244 to 246 °C

// fetch melting point given entry Cc1cc(C2=NCCO2)cc(C)c1O
184 to 186 °C

// fetch melting point given entry COc1cc(OC2CCN(S(=O)(=O)CCNC3CC3)CC2)ccc1CC(=O)N1CCN(c2ccccc2C)CC1C(N)=O (configuration not stated)
69 to 110 °C

// fetch melting point given entry COC1CCN(S(=O)(=O)c2ccc(S(=O)(=O)Cl)cc2C(F)(F)F)CC1
117 to 119 °C

// fetch melting point given entry COCC1CN(c2ccc(C3CCC(OC(=O)c4ccccc4)CC3)cc2)C(=O)O1 (racemic)
104 to 105 °C

====

melting point overview

Some solved entries appear below for comparison.
[[record]]
molecule = "CCN(CC)CCNC(=O)c1cccc2nc3cc(Br)ccc3nc12"
outcome_measure = "melting point"
assay_result = "107 to 109 °C"

[[record]]
molecule = "Nc1c(C(=O)c2ccoc2)[nH]c2cc(Cl)ccc12"
outcome_measure = "melting point"
assay_result = "113 to 114 °C"

[[record]]
molecule = "Clc1ccc(-c2ncoc2-c2ccncc2)cc1Cl"
outcome_measure = "melting point"
assay_result = "142 °C"

[[record]]
molecule = "CCNc1ncn(Cc2ccc(OC)c(OC3CCCC3)c2)c2nc(C(C)C)nc1-2"
outcome_measure = "melting point"
assay_result = "205 to 207 °C"

[[record]]
molecule = "O=C(Nc1nc(=O)c2cnn3c2n1CC=C3c1cccc(C(F)(F)F)c1)c1ccccc1"
outcome_measure = "melting point"
assay_result = "235 to 239 °C"


// fetch melting point given entry O=c1[nH]c(CCl)c(Br)c(=O)[nH]1
245 °C

// fetch melting point given entry CS(=O)(=O)Nc1cccc2c(O)ccc(N=Nc3cccc(S(=O)(=O)NCCCCCCBr)c3)c12
163 to 165 °C

// fetch melting point given entry Cc1c(C)c(N2CCN(c3ccnc(Cl)n3)CC2)c(C)c2c1OC(C)(C)C2
192 to 193 °C

// fetch melting point given entry CCOC(=O)c1ccc(COCc2csc3nc(C(=O)NCc4cccc(SC)c4)[nH]c(=O)c23)cc1
207 to 209 °C

// fetch melting point given entry Cc1ccc(C)c(OCCCC(C)(C)C(=O)Nc2cccc(C3=NC(C)(C)CO3)c2C)c1
51 to 52 °C

// fetch melting point given entry CC(=O)N(C)CC#CCn1ccnc1
113 to 115 °C

// fetch melting point given entry Oc1ccc(-n2nc3ccc(Cl)cc3n2)c(O)c1
188 to 189 °C

// fetch melting point given entry O=C(Nc1ccc(OC(F)(F)F)cc1)c1ccccc1NCc1ccc(=O)[nH]c1
189 °C

// fetch melting point given entry COc1cc(-c2nc(N)sc2CCC2CCCCC2)c(OC)cc1Cl
110 to 111 °C

// fetch melting point given entry O=C(Nc1ccc(Cl)cc1)C1=C(O)CS(=O)(=O)N(Cc2ccc(Cl)cc2)c2ccccc21
182 to 183 °C

// fetch melting point given entry CCCOc1cc(C(=O)O)cc([N+](=O)[O-])c1C(=O)c1ccccc1
160 to 162 °C

====

OUTCOME_MEASURE: melting point

Some solved entries appear below for comparison.
[[record]]
compound = "Cn1nnnc1-c1ccc(CCl)cc1"
assay_result = "90 to 92 °C"

[[record]]
compound = "CC(=O)N1c2ccc(O)cc2C(C)=CC1(C)C"
assay_result = "214 to 216 °C"

[[record]]
compound = "CCCCCCCCCCCCCC(=O)Nc1cc(NC(=O)CCCCCCCCCCCCC)cc(C(=O)N(CC(=O)O)CC(=O)O)c1"
assay_result = "109 to 111 °C"


// fetch melting point given entry COc1ccc(C(=O)c2cc3cccc(Br)c3o2)cc1OC
137 to 138 °C

// fetch melting point given entry CS(=O)(=O)c1ccc(-c2ccc(C=C(Cl)Cl)s2)cc1
143 to 145 °C

// fetch melting point given entry COc1cc(OCC2CCCCC2)ccc1/C=C/c1cc(/C=C/c2ccc3cc[nH]c3c2)[nH]n1
104 to 108 °C

// fetch melting point given entry Cc1cc(C)cc(Sc2c(C(C)C)c(=O)[nH]c(=O)n2CC#Cc2ccccc2)c1
113 to 115 °C

// fetch melting point given entry CC(C)(C)OC(=O)Nc1ccc(Cl)c(C(F)(F)F)c1
90 °C

// fetch melting point given entry Cc1[nH]c2ccccc2c1CCCN1CCC(c2noc3cc(F)ccc23)CC1
208 to 210 °C

// fetch melting point given entry CC1(C)CCC(=O)CC1S(=O)(=O)c1ccccc1 (stereo not given)
84 to 86 °C

====

melting point overview

[[record]]
compound = "CC(C)Oc1ccc(/C=C(\\NC(=O)c2ccc(OCCC3C=CCC3)cc2)C(=O)NCCO)cc1 (centres undefined)"
assay_result = "67 to 70 °C"

[[record]]
compound = "COc1cc2c(cc1OC)/C(=C/c1cc(OC)c(OC)c(OC)c1)N(C(=O)Cc1cc(OC)c(OC)c(OC)c1)CC2"
assay_result = "148 to 150 °C"

[[record]]
compound = "O=C(OC1CCCC1)c1ncn2c1[C@@H]1CCN1C(=O)c1c(I)cccc1-2"
assay_result = "184 to 185 °C"


// fetch melting point given entry CC12CCC(C(=Cc3ccccc3[N+](=O)[O-])C1=O)C2(C)C (centres undefined)
118 °C

// fetch melting point given entry CC(C)n1nc(-c2cnc(NCc3ccccn3)nc2-c2ccccc2)ccc1=O
143 to 144 °C

// fetch melting point given entry c1ccc2nc(COc3cccc4[nH]ccc34)ccc2c1
143 to 144 °C

// fetch melting point given entry CC(C)Cc1nc2ccc(Cl)cc2c(-c2ccccc2)c1CO
130 to 131 °C

// fetch melting point given entry Nc1ncc2c(n1)CCC(CNC(=O)[C@@H]1CCCN1C(=O)[C@@H](Cc1ccccc1)NS(=O)(=O)Cc1ccccc1)C2 (some centres undefined)
118 to 121 °C

// fetch melting point given entry CCc1c(C(=O)NNC(=O)C(O)c2cc(F)cc(F)c2)ccc(O)c1C (centres undefined)
187 °C

====

OUTCOME_MEASURE: melting point

[[record]]
molecule = "CC(O)(CCCCl)c1ccc(-c2cccc(F)c2)cc1 (configuration not stated)"
assay_result = "70 to 72 °C"

[[record]]
molecule = "COC(=O)c1cccc(-c2nc(CO)cs2)c1"
assay_result = "115 to 117 °C"

[[record]]
molecule = "CCN(CC)CC(=O)Nc1ccc(C2=NN(C(C)=O)C(C)Cc3cc4c(cc32)OCO4)cc1 (configuration not stated)"
assay_result = "175 to 176 °C"

[[record]]
molecule = "CC(=S)NC[C@H]1CN(c2ccc(N3CCC(=O)N(C)CC3)c(F)c2)C(=O)O1"
assay_result = "157 to 158 °C"

[[record]]
molecule = "COC(=O)/C=C/c1ccc(-c2nc3c(=O)n(CC4CCCCC4)c(=O)n(CC4CCCCC4)c3[nH]2)cc1"
assay_result = "> 270 °C"


// fetch melting point given entry COC(=O)c1nc(OC)c2ccccc2n1
129 to 130 °C

// fetch melting point given entry CCOC(=O)COc1cccc2c1CC(Br)C2=O (configuration not stated)
60 to 63 °C

// fetch melting point given entry Cc1ccc(-c2nc3ccccc3s2)cc1
84 to 85 °C

// fetch melting point given entry Oc1cc(Br)c(Br)cc1O
110 to 111 °C

// fetch melting point given entry CCC(=O)N(CC)c1ccc(C(=O)C=CN(C)C)cc1
75 to 77 °C

// fetch melting point given entry CCc1occc(=O)c1OCc1ccccc1
33 to 34 °C

// fetch melting point given entry Cc1ccc(C2(O)CCNCC2)cc1
137 to 138 °C

// fetch melting point given entry CC(=O)OCC1OC(n2cc(C)c(=S)[nH]c2=S)CC1F (configuration not stated)
113 to 114 °C

// fetch melting point given entry Cc1cc2c3c(ccn2n1)CCC3CCNC(=O)C1CC1 (configuration not stated)
112 to 113 °C

// fetch melting point given entry CS(=O)(=O)c1ccc(-c2c(-c3ccccc3)[nH]c3ccc(Cl)cc23)cc1
273 to 275 °C

// fetch melting point given entry N#Cc1c(N2CCc3ccccc3CC2)nc(CCO)n(CCO)c1=O
164 °C

// fetch melting point given entry COCCOc1ccc(CN2C(=O)C3(COc4cc5c(cc43)OCCO5)c3ccccc32)cc1 (configuration not stated)
124 to 125 °C

// fetch melting point given entry Cc1ccc(N2N=C3c4cc(C(C)O)sc4CCC3CC2=O)cc1 (configuration not stated)
129 to 145 °C

// fetch melting point given entry Cc1cccc(NC(=O)c2cc(Cl)cc(C)n2)n1
130 °C

// fetch melting point given entry CC(C)c1ccc(NC(=O)C2CCCc3c(OCc4ccccc4)ccc(F)c32)cn1 (configuration not stated)
184 °C

Source listed as a melting point compilation (Tetko et al.; mined from patent text by program, amines drawn as free bases though some values may be those of a salt).
